# assay_comment: Pharmacokinetic assay in Wistar rats, oral
# conditions: rat, plasma, 30 mg/kg

record_smiles	unit_name	AUC(0-t)
C[C@H]1CC(F)(F)CCN1C[C@H](c1cnc(NC(=O)[C@@H](NC(=O)C2(F)CC2)[C@H]2CC[C@H](C)CC2)s1)N1CC(F)(F)CNC1=O	ng·h/mL	11700
CCc1nonc1C(=O)N[C@H](C(=O)Nc1ncc([C@@H](COC)N2CC(F)(F)CNC2=O)s1)[C@H]1CC[C@H](C)CC1	ng·h/mL	22100
[2H]C([2H])([2H])C([2H])([2H])n1nccc1C(=O)N[C@H](C(=O)Nc1ncc([C@@H](CN2C[C@H](C)O[C@@H](C)C2)N2CC(F)(F)CCC2=O)s1)[C@H]1CC[C@H](C)CC1	ng·h/mL	14900

Origin of the recorded values: patent EP4711365A1
